Several reports have described IC50 for SYK kinase (Homo sapiens, UniProt P43405); a selection of those results is presented here.

Request: What measured IC50 goes with `Cn1cc(-c2nccn3nc(Nc4ccc5c(c4)CS(=O)(=O)N5)nc23)cn1` ?
Response: 100 to 300 nM

Request: Also `COCCCn1cc(Nc2nc(-c3cccs3)nc3cn[nH]c23)cn1` , if possible.
Response: 10 to 100 nM

Request: Also `Cc1ccc(-n2nc(C(C)(C)C)cc2NC(=O)Nc2ccc(OCc3ccnc(Nc4cnc(C(=O)N(C)C)cn4)c3)c3ccccc23)cc1` , if possible.
Response: > 14900 nM

Request: Also `CC(=O)N1C[C@H](O)C[C@@H]1c1nc(-c2ccc(C(F)F)cc2)c2cnc3[nH]ccc3n12` , if possible.
Response: 30 to 100 nM
